Test system: RAW264.7 cell line
Experiment: Cytokine inhibition ability: LPS-induced cytokine gene expression in RAW264.7 macrophages
Format: cell-based, mouse
Settings: grade of reduction rate of gene expression, peptide 100 nM, LPS 200 ng/mL, 6 hours
Peptide text beside a SMILES is read from it.
Recorded metric: Cytokine inhibition ability TNFα

Molecule	Recorded metric	Result
CCCC(=O)N[C@@H](CCSC)C(=O)N[C@@H](CCCCN)C(=O)N[C@@H](Cc1ccc(O)cc1)C(=O)N[C@@H](CCCCN)C(=O)N1CCC[C@H]1C(=O)N[C@H](CCSC)C(N)=O [Peptide 72] (HELM PEPTIDE1{[CCCC(=O)[*:2]].M.K.Y.K.P.[dM].[am]}$$$$V2.0)	Cytokine inhibition ability TNFα	B (61%-80%)
CCCCCCCC(=O)N[C@@H](CCSC)C(=O)N[C@@H](CCCCN)C(=O)N[C@@H](Cc1ccc(O)cc1)C(=O)N[C@@H](Cc1c[nH]c2ccccc12)C(=O)N1CCC[C@H]1C(=O)N[C@H](CCSC)C(N)=O [Peptide 116] (HELM PEPTIDE1{[CCCCCCCC(=O)[*:2]].M.K.Y.W.P.[dM].[am]}$$$$V2.0)	Cytokine inhibition ability TNFα	B (61%-80%)
CCCC(=O)N[C@@H](CCSC)C(=O)N[C@@H](CCCCN)C(=O)N[C@@H](Cc1ccc(O)cc1)C(=O)N[C@@H](CCCCN)C(=O)N[C@H](C(=O)N[C@H](CCSC)C(N)=O)C(C)C [Peptide 19] (HELM PEPTIDE1{[CCCC(=O)[*:2]].M.K.Y.K.V.[dM].[am]}$$$$V2.0)	Cytokine inhibition ability TNFα	B (61%-80%)
